Attribute: fold change (FC)
target: Stimulator of interferon genes protein (Homo sapiens, UniProt Q86WV6); test: Agonist activity at STING in human THP-1 cells harboring IRF-inducible luciferase reporter construct assessed as fold change in ISG signalling at 20 uM incubated for 12 hrs by Quanti-luc reagent based assay relative to control; format: cell-based; conditions: filed as agonist
Sequence (Q86WV6 whole entry): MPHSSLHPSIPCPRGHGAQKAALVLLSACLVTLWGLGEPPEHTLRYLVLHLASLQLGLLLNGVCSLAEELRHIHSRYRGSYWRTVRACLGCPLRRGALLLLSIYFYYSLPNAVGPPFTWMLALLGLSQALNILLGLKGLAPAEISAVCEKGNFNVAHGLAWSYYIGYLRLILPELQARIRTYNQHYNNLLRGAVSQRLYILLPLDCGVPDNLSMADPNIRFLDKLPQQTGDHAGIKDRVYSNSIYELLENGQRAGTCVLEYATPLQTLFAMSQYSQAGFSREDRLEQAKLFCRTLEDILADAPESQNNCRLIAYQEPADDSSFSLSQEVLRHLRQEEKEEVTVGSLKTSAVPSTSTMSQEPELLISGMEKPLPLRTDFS
Please give the numeric answer without any surrounding text.

Entry COCC(CC(=O)c1cc2cc(OC)c(OC)cc2[se]1)C(=O)O (racemic) : reported fold change (FC) = ?
7

Entry `COc1cc2cc(C(=O)CCC(=O)O)[se]c2cc1OC` : reported fold change (FC) = ?
2

Lab note: next compound to report on.
Entry `COc1cc2cc(C(=O)CC(C)(C)C(=O)O)[se]c2cc1OC` : reported fold change (FC) = ?
5

====

test: Volume of distribution at steady state in Sprague-Dawley rat at 5 mg/kg, iv measured for 1440 mins by LC-MS/MS analysis; assay type: ADME, organism-based; settings: in vivo, read-out: Vdss
QUANTITY MEASURED: Vd (L/kg)
Kindly answer with a numeric value in L/kg, unit omitted.

Entry `CC[C@H](CC(=O)c1cc2cc(OC)c(OC)cc2[se]1)C(=O)O` : reported Vd = ?
0.26

Lab note: next compound to report on.
Entry `COc1cc2cc(C(=O)CCC(=O)O)sc2cc1OC` : reported Vd = ?
1.28

====

molecular target: UniProt P08684; assay: Inhibition of recombinant CYP3A4 (unknown origin) using midazolam as substrate assessed as reduction in substrate hydroxylation at 10 uM incubated for 5 mins in presence of NADPH by LC-MS/MS analysis relative to control; type: ADME; details: recombinant CYP3A4, probe midazolam
Sequence (P08684 whole entry): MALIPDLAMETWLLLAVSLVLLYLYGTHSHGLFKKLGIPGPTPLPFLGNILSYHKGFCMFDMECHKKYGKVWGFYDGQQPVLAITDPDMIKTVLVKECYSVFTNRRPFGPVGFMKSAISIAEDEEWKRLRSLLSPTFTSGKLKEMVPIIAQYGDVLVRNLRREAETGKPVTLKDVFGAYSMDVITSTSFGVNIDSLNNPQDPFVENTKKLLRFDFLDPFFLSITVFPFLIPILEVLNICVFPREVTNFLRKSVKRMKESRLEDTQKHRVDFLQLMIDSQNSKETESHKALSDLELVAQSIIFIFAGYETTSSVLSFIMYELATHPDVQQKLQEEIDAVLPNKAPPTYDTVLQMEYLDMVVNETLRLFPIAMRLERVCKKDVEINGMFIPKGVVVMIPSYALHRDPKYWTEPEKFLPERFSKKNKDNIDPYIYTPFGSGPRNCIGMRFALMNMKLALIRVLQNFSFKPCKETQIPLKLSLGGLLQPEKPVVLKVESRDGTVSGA
Attribute: inhibition at 5 min, 10 µM
Kindly answer with a numeric value in %, unit omitted.

Entry `CC[C@H](CC(=O)c1cc2cc(OC)c(OC)cc2[se]1)C(=O)O` : reported inhibition at 5 min, 10 µM = ?
13.5

Lab note: next molecule to report on.
Entry `COc1cc2cc(C(=O)CCC(=O)O)sc2cc1OC` : reported inhibition at 5 min, 10 µM = ?
7.59

====

test system: Stimulator of interferon genes protein (Homo sapiens), Q86WV6 [UNDEFINED MUTATION]; experiment: Binding affinity to recombinant human STING H232 variant expressed in Escherichia coli BL21 (DE3) assessed as thermal stabilization by measuring change in melting temperature at 2 mM incubated for 30 mins by SYPRO orange dye based differential scanning fluorimetry assay
Sequence (Q86WV6 whole entry, looked up, stated change not applied): as the sequence (Q86WV6 whole entry) above
// thresholds for ΔTm classes: low = under -0.1 °C, mid = from -0.1 °C up to 4 °C, high = 4 °C and over

# count of solved cases: 5
Assign a category based on measured ΔTm for COCC(CC(=O)c1cc2cc(OC)c(OC)cc2[se]1)C(=O)O (racemic) and give only the class name.
mid

Assign a category based on measured ΔTm for COc1cc2cc(C(=O)C3CCC3C(=O)O)[se]c2cc1OC (racemic) and give only the class name.
high

Assign a category based on measured ΔTm for CCC(=O)C(C)CC(=O)c1cc2cc(OC)c(OC)cc2[se]1 (stereo not given) and give only the class name.
low

Assign a category based on measured ΔTm for COc1cc2cc(C(=O)CC(C)C(=O)O)[se]c2cc1OC (racemic) and give only the class name.
mid

Assign a category based on measured ΔTm for CCC(CC(=O)c1cc2cc(OC)c(OC)cc2s1)C(=O)O (racemic) and give only the class name.
high

***
Assign a category based on measured ΔTm for CCCC(CC(=O)c1cc2cc(OC)c(OC)cc2[se]1)C(=O)O (racemic) and give only the class name.
low

Assign a category based on measured ΔTm for CCC(CC(=O)c1cc2cc(OC)c(OC)cc2[se]1)C(=O)O (racemic) and give only the class name.
high

====

experiment: Clearance in Sprague-Dawley rat at 5 mg/kg, iv measured for 1440 mins by LC-MS/MS analysis; format: ADME, organism-based; details: in vivo
Attribute: clearance
Kindly answer with a numeric value in mL/min/kg, unit omitted.

Entry `CC[C@H](CC(=O)c1cc2cc(OC)c(OC)cc2[se]1)C(=O)O` : reported clearance = ?
2.83

Lab note: next compound to report on.
Entry `COc1cc2cc(C(=O)CCC(=O)O)sc2cc1OC` : reported clearance = ?
8.5

====

experiment: Permeability of the compound in PBS buffer incubated for 5 hrs by PAMPA-based LC-MS/MS analysis; format: ADME; conditions: read-out: permeability
QUANTITY MEASURED: Papp at 5 h

Entry `COc1cc2cc(C(=O)CCC(=O)O)sc2cc1OC` : reported Papp at 5 h = ?
1.7 ×10⁻⁶ cm/s

Lab note: next molecule to report on.
Entry `CC[C@H](CC(=O)c1cc2cc(OC)c(OC)cc2[se]1)C(=O)O` : reported Papp at 5 h = ?
2.04 ×10⁻⁶ cm/s

====

tested on: Stimulator of interferon genes protein (Homo sapiens), Q86WV6 [UNDEFINED MUTATION]; experiment: Binding affinity to recombinant human STING H232 variant expressed in Escherichia coli BL21 (DE3) assessed as thermal stabilization by measuring change in melting temperature at 2 mM incubated for 30 mins by SYPRO orange dye based differential scanning fluorimetry assay
Attribute: ΔTm
Kindly answer with a numeric value in °C, unit omitted.

// worked examples, ΔTm included
Tell me reported ΔTm for CCC(CC(=O)c1cc2cc(OC)c(OC)cc2o1)C(=O)O (racemic) , tested with Stimulator of interferon genes protein (Homo sapiens), Q86WV6 [UNDEFINED MUTATION].
-0.1

Tell me reported ΔTm for `COc1cc2cc(C(=O)CCC(=O)O)sc2cc1OC` , tested with Stimulator of interferon genes protein (Homo sapiens), Q86WV6 [UNDEFINED MUTATION].
3.9

Lab note: next compound to report on.
Tell me reported ΔTm for COc1ccc2cc(C(=O)CC(C)C(=O)O)[se]c2c1 (racemic) , tested with Stimulator of interferon genes protein (Homo sapiens), Q86WV6 [UNDEFINED MUTATION].
-0.1
